- SYSTEM NAME: Metabotropic glutamate receptor 8 (Rattus norvegicus) (UniProt P70579)
- Sequence (P70579 whole entry, looked up): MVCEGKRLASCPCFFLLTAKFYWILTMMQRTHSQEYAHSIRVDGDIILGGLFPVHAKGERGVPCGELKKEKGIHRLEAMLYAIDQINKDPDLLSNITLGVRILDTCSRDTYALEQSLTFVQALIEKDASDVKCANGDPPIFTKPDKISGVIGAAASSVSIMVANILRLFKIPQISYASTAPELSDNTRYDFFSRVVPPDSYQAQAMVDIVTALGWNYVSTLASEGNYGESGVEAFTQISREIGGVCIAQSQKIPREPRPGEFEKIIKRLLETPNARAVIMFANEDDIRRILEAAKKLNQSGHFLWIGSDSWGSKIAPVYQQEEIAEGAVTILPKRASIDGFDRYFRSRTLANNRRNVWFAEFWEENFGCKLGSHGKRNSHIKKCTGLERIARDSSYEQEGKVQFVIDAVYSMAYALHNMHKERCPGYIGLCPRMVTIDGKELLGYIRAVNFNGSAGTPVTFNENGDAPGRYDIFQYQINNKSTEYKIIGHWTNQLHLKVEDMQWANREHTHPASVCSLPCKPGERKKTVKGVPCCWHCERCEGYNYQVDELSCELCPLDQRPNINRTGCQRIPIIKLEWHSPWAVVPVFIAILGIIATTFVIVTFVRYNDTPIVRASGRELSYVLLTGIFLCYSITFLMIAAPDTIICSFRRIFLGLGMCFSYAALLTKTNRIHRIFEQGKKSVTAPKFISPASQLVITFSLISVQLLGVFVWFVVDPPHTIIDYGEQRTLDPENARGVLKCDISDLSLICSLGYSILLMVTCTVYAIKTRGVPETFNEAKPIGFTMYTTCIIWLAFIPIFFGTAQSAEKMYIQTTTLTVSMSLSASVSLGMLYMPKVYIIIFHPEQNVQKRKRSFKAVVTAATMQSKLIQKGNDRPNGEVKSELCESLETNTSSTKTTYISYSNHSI
- ASSAY NOTES: mGluR8 Gi/Go-coupled signaling modulation – cell-based, rat, thallium flux, HTS, primary screen (AID 488969)
- COND: HEK293 rat mGluR8, GIRK thallium flux, FluoZin2; at 10 µM; stronger effect = higher value; submaximal glutamate (EC20) added with thallium
The full ranking holds about 110,000 compounds; the median of “z-score” is about -0.1, and the highest 2% start at about 2. What follows is part of a selection rich in the highest values, with near analogues and random picks from the rest.
Decision: z-score >= 0.2 yields Condition met, all other cases yield Condition not met.

> print(dat)
                                   compound              label
1   Cc1ccc(OCC(=O)NNC(=O)C(=O)NC(C)(C)C)cc1      Condition met
2  O=S(=O)(c1ccc(NC(=S)Nc2ccc3c(c2)OCO3)cc1)N1CCOCC1  Condition not met
3           COc1cccc(NC(=O)COc2ccc(C)cc2)c1      Condition met
4      CC(C)(C)NC(=O)C(=O)NNC(=O)COc1ccccc1  Condition not met
5  COc1cc(CNCCc2c[nH]c3ccccc23)ccc1OCc1ccccc1F      Condition met

**Query** Answer whether z-score of O=C(N/C(=N\O)c1ccccc1)Nc1ccc(Cl)cc1 is greater than or equal to 0.2.
**Result** Condition met

**Query** Answer whether z-score of COc1cccc(CNn2cnnc2)c1OCc1ccc(F)cc1 is greater than or equal to 0.2.
**Result** Condition not met

**Query** Answer whether z-score of Cn1c(CNC(=O)c2ccc(Cl)cc2)nnc1SCC(=O)Nc1sc2c(c1C#N)CCCC2 is greater than or equal to 0.2.
**Result** Condition met

**Query** Answer whether z-score of CCC(CC)NC(=O)/C=C/c1ccccc1Cl is greater than or equal to 0.2.
**Result** Condition not met

**Query** Answer whether z-score of CC(C)COP(=O)(c1ccc(N(C)C)cc1)C(O)c1ccncc1 (stereo unspecified) is greater than or equal to 0.2.
**Result** Condition not met

**Query** Answer whether z-score of O=C(Cn1cnc2c(nnn2Cc2ccc(F)cc2)c1=O)N1CCN(c2ccccc2)CC1 is greater than or equal to 0.2.
**Result** Condition not met

---

- SYSTEM NAME: Metabotropic glutamate receptor 8 (Rattus norvegicus) (UniProt P70579)
- ASSAY NOTES: mGluR8 Gi/Go-coupled signaling modulation – cell-based, rat, thallium flux, HTS, primary screen (AID 488969)
- COND: HEK293 rat mGluR8, GIRK (G protein-gated inwardly rectifying potassium channel) thallium flux, FluoZin2; at 10 µM; stronger effect = higher value; submaximal glutamate (EC20) added with thallium
Over roughly 110,000 compounds, “z-score” has its median near -0.1; the highest 2% begin near 2. What follows is part of a selection rich in the highest values, with near analogues and random picks from the rest.
Decision: z-score >= 0.6 yields MET, all other cases yield NOT MET.

Please review the following examples before continuing.
> print(dat)
                                   molecule                               system.name    label
1  CCOC(=O)c1c(CN2CCN(Cc3ccccc3)CC2)n(C)c2cc(Br)c(OC)cc12  Metabotropic glutamate receptor 8 (Rattus norvegicus) (UniProt P70579)  NOT MET
2  COCCCn1c(=N)c(C(=O)NCc2ccc3c(c2)OCO3)cc2c(=O)n3ccccc3nc21  Metabotropic glutamate receptor 8 (Rattus norvegicus) (UniProt P70579)  NOT MET
3       CCNC(=S)N/N=C1\C(=O)c2cccc3cccc1c23  Metabotropic glutamate receptor 8 (Rattus norvegicus) (UniProt P70579)      MET
4  COc1cc2c(C(=O)N3CCN(C)CC3)c(C)n(-c3ccccc3)c2cc1Br  Metabotropic glutamate receptor 8 (Rattus norvegicus) (UniProt P70579)  NOT MET
5               CCCC(=O)n1nc(-c2cccnc2)nc1N  Metabotropic glutamate receptor 8 (Rattus norvegicus) (UniProt P70579)  NOT MET

**Query** Answer whether z-score of CCN(CC)S(=O)(=O)c1ccc(NCc2ccccc2)nc1 is greater than or equal to 0.6.
**Result** NOT MET

**Query** Answer whether z-score of CSC1=N/C(=C\c2ccc(Br)o2)C(=O)S1 is greater than or equal to 0.6.
**Result** MET

**Query** Answer whether z-score of CCCC(=O)n1nc(-c2ccccc2)nc1N is greater than or equal to 0.6.
**Result** MET

**Query** Answer whether z-score of Cc1ccc(CC2CC(=O)N(c3nc4ccccc4n3C)C2=O)cc1 (stereo unspecified) is greater than or equal to 0.6.
**Result** NOT MET

**Query** Answer whether z-score of CSC1=N/C(=C\c2ccc(C)cc2)C(=O)S1 is greater than or equal to 0.6.
**Result** NOT MET

**Query** Answer whether z-score of O=C(Nc1ccc(Cl)cc1)NC1CCCCC1Cc1ccco1 (stereo unspecified) is greater than or equal to 0.6.
**Result** MET
